- assay info: Solubility in aqueous media
- Assay type: physicochemical
- assay conditions: salt solubility is system dependent (amount of salt present, relative amount of (R) and (S) salts), read-out: solubility
value type: solubility (µg/mL)
Express the result in µg/mL but write the number alone.

stdin: Quick check: solubility of C[C@](N)(Cc1ccc(O)c(O)c1)C(=O)O (single isomer, unassigned) ?
stdout: 10000
